system: BDF1 mice, P388 leukemia ip, median survival T/C; assay: NCI In Vivo Anticancer Drug Screen. Data for tumor model P388 Leukemia (intraperitoneal) in B6D2F1 (BDF1) mice; conditions: endpoint: median survival time; dose: 200.0 mg/kg/injection; schedule: Q01DX009 (ip); vehicle: saline with Tween-80; higher = longer survival
Toxic doses and inconclusive results are not listed.
experimental.readout: T/C

CS(=O)C/C(=C/CCCl)c1cccs1 (centres undefined)	105 % of control

Find T/C (BDF1 mice, P388 leukemia ip, median survival T/C) for the entry CC(C)(C)NCC(O)c1cc(C(F)(F)F)nc2c(C(F)(F)F)cccc12 (centres undefined)
97 % of control

Which measured T/C belongs to COC(=O)C(C)=O , tested on BDF1 mice, P388 leukemia ip, median survival T/C?
95 % of control

Lab request: please report T/C under test system BDF1 mice, P388 leukemia ip, median survival T/C for CCOC(=O)c1cc(C=O)c[nH]1
101 % of control

Recall the recorded T/C for CC(C)NC(=O)N(C(=O)C(F)(F)F)C(C)C with BDF1 mice, P388 leukemia ip, median survival T/C and state it.
95 % of control

State its T/C on BDF1 mice, P388 leukemia ip, median survival T/C: COC(=O)CCSCCC(=O)OC
100 % of control

Give T/C (BDF1 mice, P388 leukemia ip, median survival T/C) of the following molecule: Cc1csc(NC(O)C(Cl)(Cl)Cl)n1 (centres undefined)
101 % of control

---

test system: BDF1 mice, P388 leukemia ip, median survival T/C; assay: NCI In Vivo Anticancer Drug Screen. Data for tumor model P388 Leukemia (intraperitoneal) in B6D2F1 (BDF1) mice; conditions: endpoint: median survival time; dose: 75.0 mg/kg/injection; schedule: Q01DX009 (ip); vehicle: Klucel (hydroxypropylcellulose) (HPC)
Toxic doses and inconclusive results are not listed. How the source made its calls: active means survival T/C of 150% or more; inactive means T/C below 125% in these data.
Your answer must be one of the following: t = active, f = inactive

These solved cases illustrate the format of a correct answer.
CCCCCCCCCCCCC1CC(=O)OC1=O (stereo not given)	f
Cc1cc(Cl)ccc1NC(=O)c1ccc(Cl)cc1	f
CCN(CC)CCNc1ccc(N=Nc2cnc3ccccc3c2)c2ccccc12	f
O=C1NC(c2cccc3ccccc23)Nc2ccc(Cl)cc21 (stereo not given)	t

Kindly review the next compound as well.
What classification did COc1cc2c(c(OC)c1OC)CC1c3c(cc4c(c3-2)OCO4)CCN1C (stereo not given) end up with in this test?
f

---

# maps each entry to its T/C
tested on: BDF1 mice, P388 leukemia ip, median survival T/C; assay: NCI In Vivo Anticancer Drug Screen. Data for tumor model P388 Leukemia (intraperitoneal) in B6D2F1 (BDF1) mice; details: endpoint: median survival time; dose: 200.0 mg/kg/injection; schedule: Q01DX001 (ip); vehicle: saline with Tween-80; higher = longer survival
Toxic doses and inconclusive results are not listed.

CCNC(=O)N(CC(N)=O)c1ncc([N+](=O)[O-])s1	98 % of control
O=S(=O)(Nc1cc(Cl)c(NS(=O)(=O)c2ccccc2)cc1Cl)c1ccccc1	90 % of control
CC(Cc1cccs1)N=Cc1cc(Br)ccc1O (centres undefined)	111 % of control
COC(=O)C1C(c2ccccc2)=NC(c2ccccc2)C1C(=O)OC (centres undefined)	96 % of control
Cc1cccc(C(=O)CC(O)(C(F)(F)F)C(F)(F)F)c1	100 % of control

Would you kindly share the measured T/C for CCN(C(=O)Nc1ccccc1Cl)c1ccccc1 ?
100 % of control

Consider the molecule CSc1nc2n(Cc3c[nH]c(=O)[nH]c3=O)cc(C)cc-2c(=O)n1 and give its measured T/C.
106 % of control

So what does the record say about T/C for C/C(=C\COc1ccc2ccc(=O)oc2c1)C1=CC(=O)C(C)(C)O1 ?
103 % of control

Give its T/C value. Item: FC(F)(F)/C([S-])=C(/[S-])C(F)(F)F.FC(F)(F)/C([S-])=C(/[S-])C(F)(F)F.FC(F)(F)/C([S-])=C(/[S-])C(F)(F)F.FC(F)(F)/C([S-])=C(/[S-])C(F)(F)F.[Fe+3].[Fe+3]
104 % of control

For the molecule O=C(O)C1C2C=CC(C2)C1C(F)(F)C(F)(F)C(F)(F)F (centres undefined) , what T/C is on record?
104 % of control

// T/C lookup, key: O=C(OC1(c2ccccc2)CCC1)c1cc([N+](=O)[O-])cc([N+](=O)[O-])c1
96 % of control

What measured T/C goes with CC(C)NC(=O)c1ccccc1S(=O)c1ccccc1 (centres undefined) ?
101 % of control

Requested read-out: T/C. Entry: Cc1oc(-c2ccccc2)nc1C(=O)Cl
113 % of control

Consider the molecule shown here: NNC(=O)C1CC2C=CCC(C2)C1 (centres undefined) What is its recorded T/C?
91 % of control

// provenance: PubChem BioAssay AID328
